# subject of test: CYP1A2 (Homo sapiens, UniProt P05177)
# test description: Time-dependent inhibition of human microsomal CYP1A2-dependent methoxyresorufin-O-demethylase activity by spectrofluorimetric analysis in presence of NADPH regenerating solution
# run conditions: human microsomal CYP1A2, probe methoxyresorufin (O-demethylation)
assay metric: kinact (s⁻¹)
Give bare numbers, in s⁻¹.

>  <entry smiles>
Cc1cc2c(cc(O)c3c(=O)cc(-c4ccccc4)oc32)o1

>  <kinact [s⁻¹]>
0.00433

$$$$

# ---- query compound ----
Query :: Consider the compound Cc1cc2c(ccc3c(=O)cc(-c4ccccc4)oc32)o1 and give its recorded kinact.
Result :: 0.007

---

# Species on record: Homo sapiens
# test description: Selectivity ratio of Ki for human microsomal CYP1B1 to Ki for human microsomal CYP1A2
Decide using Ratio Ki: a value greater than or equal to 6 is t, a smaller one is f.

Please review the entries below; each comes with its answer.
>  <entry smiles>
Cc1cc2c(ccc3c(C)cc(=O)oc32)o1

>  <label>
t

$$$$
>  <entry smiles>
Cc1c(-c2ccccc2)c2ccc3c(c2oc1=O)C=CCO3

>  <label>
t

$$$$
>  <entry smiles>
Cc1cc(=O)oc2c3c(ccc12)OCC=C3

>  <label>
t

$$$$

Query :: Has Cc1cc2c(ccc3c(C(F)(F)F)cc(=O)oc32)o1 a recorded Ratio Ki greater than or equal to 6?
Result :: t

Query :: Threshold query (Ratio Ki >= 6) on O=c1cc(C(F)(F)F)c2ccc3c(c2o1)C=CCO3
Result :: t

Query :: Reported Ratio Ki at or above 6? Cc1cc2c(ccc3c(-c4ccccc4)cc(=O)oc32)o1
Result :: f

Query :: Please indicate if the recorded Ratio Ki for O=c1cc(-c2ccccc2)c2ccc3c(c2o1)C=CCO3 meets or exceeds 6.
Result :: f

---

Please go through the items and note down their pKi.
# subject of test: Cytochrome P450 1A2 (Homo sapiens, UniProt P05177)
# Sequence (P05177 whole entry): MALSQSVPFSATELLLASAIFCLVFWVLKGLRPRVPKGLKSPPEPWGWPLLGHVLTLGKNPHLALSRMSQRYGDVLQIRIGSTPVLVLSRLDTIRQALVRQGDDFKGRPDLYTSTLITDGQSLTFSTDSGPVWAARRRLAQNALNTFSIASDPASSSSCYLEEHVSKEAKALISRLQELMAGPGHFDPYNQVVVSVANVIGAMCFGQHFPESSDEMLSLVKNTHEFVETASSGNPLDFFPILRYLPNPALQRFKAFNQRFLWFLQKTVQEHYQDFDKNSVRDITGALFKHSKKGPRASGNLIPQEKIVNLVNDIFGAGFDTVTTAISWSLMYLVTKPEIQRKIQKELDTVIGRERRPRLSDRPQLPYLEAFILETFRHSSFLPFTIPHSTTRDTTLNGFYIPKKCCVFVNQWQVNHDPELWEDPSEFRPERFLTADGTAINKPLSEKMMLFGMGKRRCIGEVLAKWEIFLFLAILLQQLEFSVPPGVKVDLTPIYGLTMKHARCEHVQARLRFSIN
# test description: Inhibition of human microsomal CYP1A2-dependent methoxyresorufin-O-demethylase activity by spectrofluorimetric analysis in presence of NADPH regenerating solution
Answers are plain numbers, as −log10 of the molar value.

// each listed compound needs a value for pKi
1. Cc1cc2c(ccc3c(C(F)(F)F)cc(=O)oc32)o1
2. O=c1cc(-c2ccccc2)c2ccc3c(c2o1)C=CCO3
3. Cc1cc2c(ccc3c(C)cc(=O)oc32)o1

Result ::
1: 5.87; 2: 5.89; 3: 5.94
